Origin of the recorded values: a melting point compilation (Tetko et al.; mined from patent text by program, amines drawn as free bases though some values may be those of a salt)

quantity-kind: melting point

-- ask State the recorded melting point for this entry: CCOC(=O)N1CCN(c2cn(Cc3ccccc3)c3cc(OC)ccc3c2=O)CC1
-- reply 173 to 174 °C

-- ask // repeat for CC1(C)OC(=O)Nc2ccc(-c3cc(F)cc(C(F)(F)F)c3)cc21 and report
-- reply 207 to 208 °C

-- ask Another compound to look at: O=c1oc(-c2ccc(OCC3CCCCC3)cc2)cc(O)c1SCCc1ccccc1
-- reply 130 to 132 °C

-- ask For CN(C)C=CC(=O)c1ccc(F)cc1 then?
-- reply 83.5 to 84 °C

-- ask Proceed to CON=C(Nc1nc(OC)nc(OC)n1)NS(=O)(=O)c1ccccc1S(=O)(=O)OC
-- reply 148 to 150 °C
